Target: UniProt P03372
Sequence (P03372 whole entry, the tested form may be a part): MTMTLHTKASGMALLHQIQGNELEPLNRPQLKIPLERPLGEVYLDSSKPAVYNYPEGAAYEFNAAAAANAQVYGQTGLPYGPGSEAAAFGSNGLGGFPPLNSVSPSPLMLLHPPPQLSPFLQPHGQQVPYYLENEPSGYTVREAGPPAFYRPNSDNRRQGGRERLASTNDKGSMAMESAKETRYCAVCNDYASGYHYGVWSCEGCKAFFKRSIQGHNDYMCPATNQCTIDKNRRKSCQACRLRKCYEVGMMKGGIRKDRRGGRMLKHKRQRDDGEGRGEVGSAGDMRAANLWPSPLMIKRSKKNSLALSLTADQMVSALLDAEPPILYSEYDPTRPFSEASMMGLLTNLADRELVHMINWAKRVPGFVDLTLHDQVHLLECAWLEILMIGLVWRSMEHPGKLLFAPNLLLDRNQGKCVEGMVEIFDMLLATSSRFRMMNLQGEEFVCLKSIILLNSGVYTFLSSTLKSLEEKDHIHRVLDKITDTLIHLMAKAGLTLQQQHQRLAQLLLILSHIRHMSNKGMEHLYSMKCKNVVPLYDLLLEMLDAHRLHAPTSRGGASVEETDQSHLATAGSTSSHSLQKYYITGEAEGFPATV
Experiment: Antagonist activity at CMX-GAL4N fused human ERalpha expressed in HEK293 cells assessed as reduction in E2 induced response by luciferase reporter gene assay
# Lookup of reported pIC50 keyed by entry
Units for pIC50: none; it is -log10 of a concentration expressed in mol/L.

Sample records with pIC50:
CCC(CC)(c1ccc(O)cc1)c1ccc(O)c(O)c1
6.81
CCCC(CCC)(c1ccc(O)c(C)c1)c1ccc(O)c(C)c1
8.65
CCC(CC)(c1ccc(O)c(C)c1)c1ccc(O)c(O)c1
6.18
CCCC(CCC)(c1ccc(O)c(C)c1)c1ccc(O)c(O)c1
6.80
CCCC(CCC)(c1ccc(O)c(C)c1)c1cc(C)c(O)c(O)c1
6.57

Q. Requested read-out pIC50, target or system UniProt P03372, entry `CCCC(CCC)(c1ccc(O)c(C)c1)c1ccc(OCCN(C)C)c(C)c1`
A. 6.87

Q. Requested read-out pIC50, target or system UniProt P03372, entry `CCCC(CCC)(c1ccc(OCCN(C)C)c(C)c1)c1ccc(O)c(O)c1`
A. 6.65

Q. Requested read-out pIC50, target or system UniProt P03372, entry `CCCC(CCC)(c1ccc(O)cc1)c1ccc(O)c(O)c1`
A. 7.20
